Catalogue of molecules with associated melting point

Cc1cc(C(=O)O)c(C)n1-c1ccc(F)cc1 ... 232 to 234 °C
N#Cc1ccc2ncc(C=O)n2c1 ... 184 to 186 °C
CS(=O)(=O)Cc1c(C(=O)O)oc2ccccc12 ... 218 to 220 °C
O=[N+]([O-])c1ccc2nc(Br)sc2c1 ... 201 to 203 °C
COc1ccccc1NC(=O)Nc1cc(N)ccc1OC ... 167 to 169 °C

## Input Using the record for "CSc1ncc(C(=O)O)n1-c1ccccc1" , state its measured melting point.
## Output 206 to 208 °C

## Input Using known records, supply melting point for "N#Cc1nc(C2CC2)oc1N1CCNCC1"
## Output 99 to 101 °C

## Input Entry "O=S1(=O)CCNCC12CCCCC2" needs its melting point filled in; supply it.
## Output 99 to 101 °C

## Input Give a short answer stating reported melting point for "O=C(O)c1cccc(OCC(F)(F)F)c1" .
## Output 104 to 106 °C

This collection of values is drawn from a melting point compilation (Tetko et al.).
